The entries below are paired with their reported Kd.
Biological target: T1, human CD39 (Accession No. NM_001776.6) expressed on cells (human, UniProt P49961 1-510)
T1 construct: whole, on cells; On Jurkat, 293T or SK-MEL28 cells; also called Jurkat/CD39; 293T/CD39
T1 sequence (looked up): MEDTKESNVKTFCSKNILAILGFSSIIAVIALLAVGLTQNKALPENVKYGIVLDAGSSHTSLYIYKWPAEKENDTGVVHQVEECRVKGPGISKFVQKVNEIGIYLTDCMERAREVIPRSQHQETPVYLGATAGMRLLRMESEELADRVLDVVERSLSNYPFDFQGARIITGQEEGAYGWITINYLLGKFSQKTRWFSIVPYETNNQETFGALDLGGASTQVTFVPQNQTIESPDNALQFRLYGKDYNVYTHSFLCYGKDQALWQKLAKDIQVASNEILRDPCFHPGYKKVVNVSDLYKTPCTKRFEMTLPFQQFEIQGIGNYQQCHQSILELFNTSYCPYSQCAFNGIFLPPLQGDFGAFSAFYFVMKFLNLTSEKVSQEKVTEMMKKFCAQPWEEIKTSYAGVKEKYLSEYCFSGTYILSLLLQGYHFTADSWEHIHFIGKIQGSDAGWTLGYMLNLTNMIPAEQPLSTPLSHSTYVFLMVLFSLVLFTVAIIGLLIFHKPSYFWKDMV
Assay: flow cytometry, 293T/CD39 cells, KD from MFI
Express the result in nM but write the number alone.

Solved cases below.
binder	attribute_measured	assay_value
6-3hIG_sc (antibody, scFv-Fc homodimer, anti-CD39; also called scFv-Fc homodimeric antibody of anti-CD39_scFv antibody (humanized) 6-3hIG; not shown: GGGG linker and Fc-LALA (human IgG1 Fc with L234A and L235A)) scFv: QVQLVQSGAELVKPGASVKLSCKASGFSIKDTYVHWVKQAPGKGLEWIGKIDPANVNTKFDPKFQGRVTITADTSTNTAYLQLSSLRSEDTAVYYCALYGYDDDAYYFDYWGQGTLVTVSSGGGGSGGGGSGGGGSGGGGSEIVLTQSPASLSVSPGERATISCRASESVDNYGISFMNWFQQKPGQAPKLLIYAASNQGSGVPARFSGSGSGTDFTLTISSLEPEDFAVYYCQQSKEVPYTFGQGTKLEIK	Kd	18.6
I67_LA (antibody, V domains shown, also called IgG1-LALA antibody of anti-CD39 antibody I67) VH: DVQLQESGPSLVQPSQSLSINCTVSGFSLSSYGVHWVRQSPGKGLEWLGVIWRRGSTDYNAAFMSRLSITKDNSKSQVFFKMNRLQADDTATYYCAKGISTATSWFAYWGQGTLVTVSA VL: DIVMTQSHKFMSTSVGDRVSVTCKASQNVGTNVAWYQQKPGQSPKALIYSASYRYSGVPDRFTGSGSGTDFTLTISNVQSEDLAEYFCQQYNSYPLTFGAGTKLELK	Kd	1.73
mAnE67_LA (antibody, V domains shown, also called IgG1-LALA antibody of anti-CD39 antibody mAnE67) VH: EVQLVESGGGLVKPGGSRKLSCAASGFTFSDYGMHWVRQAPEKGLEWVAYISSGSSIIYYADTVKGRFTISRDNAKNTLFLQMTGLRSEDTAMYYCARKDYPYAMDYWGQGTSLAVSS VL: SIVMTQTPKFMSTSVGDRVSVTCKASQNVGTNVAWYQQKPGQSPKALIYWASNRFTGVPDRFTGSGSGTDFTLTISNVQSEDLADYFCQQYSSSPYTFGSGTKLEIK	Kd	1.8
T86_sc (antibody, scFv-Fc homodimer, anti-CD39 (mouse variable regions); also called scFv-Fc homodimeric antibody of anti-CD39_scFv antibody T86; not shown: linker and Fc-LALA (human IgG1 Fc with L234A and L235A)) scFv: QIQLVQSGPELKKPGETVKISCEASGYTFINYGMNWVKQAPGKGLKWMGWINTYTGEPTYADDFKGRFAFSLETSANTAYLQINNLKNEDTATYFCARKGYYGYPNYYAMDYWGQGTSVTVSSGGGGSGGGGSGGGGSGGGGSDIVMTQSQKFMSTSVGDRVSITCKASQNVGTAVAWYQQKPGQSPKLLIYSASNRYTGVPDRFTGSGSGTDFTLTISNMQSEDLADYFCQQYSSYPITFGTGTKLEIK	Kd	3.56
T86_LA (antibody, V domains shown, also called IgG1-LALA antibody of anti-CD39 antibody T86) VH: QIQLVQSGPELKKPGETVKISCEASGYTFINYGMNWVKQAPGKGLKWMGWINTYTGEPTYADDFKGRFAFSLETSANTAYLQINNLKNEDTATYFCARKGYYGYPNYYAMDYWGQGTSVTVSS VL: DIVMTQSQKFMSTSVGDRVSITCKASQNVGTAVAWYQQKPGQSPKLLIYSASNRYTGVPDRFTGSGSGTDFTLTISNMQSEDLADYFCQQYSSYPITFGTGTKLEIK	Kd	2.67
I67_sc (antibody, scFv-Fc homodimer, anti-CD39 (mouse variable regions); also called scFv-Fc homodimeric antibody of anti-CD39_scFv antibody I67; not shown: linker and Fc-LALA (human IgG1 Fc with L234A and L235A)) scFv: DVQLQESGPSLVQPSQSLSINCTVSGFSLSSYGVHWVRQSPGKGLEWLGVIWRRGSTDYNAAFMSRLSITKDNSKSQVFFKMNRLQADDTATYYCAKGISTATSWFAYWGQGTLVTVSAGGGGSGGGGSGGGGSGGGGSDIVMTQSHKFMSTSVGDRVSVTCKASQNVGTNVAWYQQKPGQSPKALIYSASYRYSGVPDRFTGSGSGTDFTLTISNVQSEDLAEYFCQQYNSYPLTFGAGTKLELK	Kd	2.37
Tre_291_sc (antibody, scFv-Fc homodimer, anti-CD39 (mouse variable regions); not shown: linker and Fc-LALA (human IgG1 Fc with L234A and L235A)) scFv: QVQLKQSGPGLVQPSQSLSITCTVSGFSLTSYGVHWVRQSPGKGLEWLGVIWRRGSTDYNAAFMSRLSITKDTSKSQVFFKMNSLQTDDTAIYYCAGVRGDAMDYWGQGTSVTVSSGGGGSGGGGSGGGGSGGGGSDIVMTQSHKSMSTSVGDRVSVTCKASQNVGTNVAWYQQKPGQSPKALIYSASYRYSGVPDRFTGSGSGTDFTLTISNVQSEDLAEYFCQQYNSYPLTFGGGTKLEIK	Kd	2.43

// below: Kd requested for another binder
Data request, read-out Kd, for Tre291_LA (antibody, V domains shown) VH: QVQLKQSGPGLVQPSQSLSITCTVSGFSLTSYGVHWVRQSPGKGLEWLGVIWRRGSTDYNAAFMSRLSITKDTSKSQVFFKMNSLQTDDTAIYYCAGVRGDAMDYWGQGTSVTVSS VL: DIVMTQSHKSMSTSVGDRVSVTCKASQNVGTNVAWYQQKPGQSPKALIYSASYRYSGVPDRFTGSGSGTDFTLTISNVQSEDLAEYFCQQYNSYPLTFGGGTKLEIK
2.44
